These measurements were taken from patent US9611314B2.

Collected level at 4 h values appear next to each entry.
# assay-name: in vivo
# Design: species or system rodents
# condition-details: topical or ocular, 2 ug
Where no end group is shown, it is not given here.
I'd appreciate it if you wrote the number followed by its unit.

SALSLGADERTESIIHR [Peptide 81-1, SALSLGADERTESIIHR] : 1800 ng/mL

I am curious: what level at 4 h value has been reported for SAISIGADERTESIIHR [Peptide 81-2, SAISIGADERTESIIHR] ?
2000 ng/mL

Can you look up the measured level at 4 h of VLLSPLSVATALSALSLGADERTESIIHR [SpxA1] for me?
920 ng/mL

Which measured level at 4 h value corresponds to VLLSPLSVATALSALSLGADERTESIIHRALYYDLISSPDIHGT [Peptide P-78, reference compound] ?
1200 ng/mL

Entry under review: SAISIGADARTASIIHR [Peptide 81-3, SAISIGADARTASIIHR] . Reported level at 4 h?
2280 ng/mL
